# Method Notes: Steady-state plasma pharmacokinetics of enzastaurin and metabolites in native Chinese cancer patients (LC-MS/MS, noncompartmental)
# Assay type: in vivo, human
# Details: human, plasma, po, 500 mg
# Method: Then, the study drug ceased for three days (days 15 to 17) and resumed on day 18, after the last PK sample was obtained. During the study, dosing occurred at approximately the same time of day for each individual patient. Nominal collection times were day 14 predose and 1, 2, 4, 6, 8, 10, 24, 48, 72, and 96 h postdose. […] The actual sampling time was accurately recorded for analysis. […]
Where a name gives a salt, the structure may show the parent alone.
Measurement Type: Cmax (nM)
// note: answer is a bare numeric in nM

Record Cn1cc(C2=C(c3cn(C4CCN(Cc5ccccn5)CC4)c4ccccc34)C(=O)NC2=O)c2ccccc21 [enzastaurin, Enzastaurin monohydrochloride] . Reported Cmax: 2370
